# Test system: RXF 393 renal
# assay explanation: NCI-60 one-dose screen, 48 h (100 = growth as untreated, 0 = no growth, -100 = all killed)
# condition summary: 10 µM unless noted
# Procedure: Cells are grown in 96 well plates and exposed to the test compound for 48 hours. Compounds are tested at a single concentration, which is 10^-5 M for most compounds. The reported endpoint is percent growth (GI% or GIPRCNT), where numbers from 0 - 100% represent growth inhibition, and numbers from -100% - 0 represent cell death. For example, a value of 40 represents 60% growth inhibition. A value of 0 means no net growth occurred over the course of the experiment. […]
This is part of a sample that, as a whole, favours compounds with a hit. Of some 83,000 tested, about 20% had one in any assay.
Tick criterion met if growth is 80% or greater. Tick criterion not met if growth is less than 80%.

Completed entries (count: 10):
molecule=CCN(CCNc1ccc(C)c2sc3cc(Cl)ccc3c(=O)c12)CC(C)(C)O qualitative_label="criterion not met"
molecule=O=CCCCOCc1ccccc1 qualitative_label="criterion met"
molecule=COc1cc(/C=C/c2cc(/C=C/c3ccc(O)c(OC)c3)n(C(=O)Nc3ccc(Cl)cc3)n2)ccc1O qualitative_label="criterion not met"
molecule=CCSc1ccnc(N)n1 qualitative_label="criterion met"
molecule=Cn1cc(-c2csc(-c3cn(CCCN4CCOCC4)c4ccc(F)cc34)n2)c2cccnc21 qualitative_label="criterion not met"
molecule=CCOC(=O)c1nnn(Cc2cc(=O)oc3ccc(O)cc23)c1C qualitative_label="criterion met"
molecule=COc1ccc(C/C(C)=C(\c2ccc(Cl)cc2)c2ccc(OCCN3CCCC3)cc2)cc1 qualitative_label="criterion not met"
molecule=C[N+]1=C(/C=C/c2ccccc2Cl)C(C)(C)c2ccccc21 qualitative_label="criterion met"
molecule=C[C@H]1[C@H](C)CC[C@]2(C(=O)NCCNCCN)CC[C@]3(C)C(=CC[C@@H]4[C@@]5(C)CCC(=O)C(C)(C)[C@@H]5CC[C@]43C)[C@H]12 qualitative_label="criterion met"
molecule="COC1/C=C/OC2(C)Oc3c(C)c(O)c4c(O)c(c(/C=N/N(c5ccccc5)c5ccccc5)c(O)c4c3C2=O)NC(=O)C(C)=C/C=C/C(C)C(O)C(C)C(O)C(C)C(OC(C)=O)C1C (stereo not given)" qualitative_label="criterion not met"

## Task Could you tell me if the measured growth of Clc1cccc(C2Cc3cnccc3-c3[nH]c4ccncc4c32)c1 (stereo not given) reaches 80% or more?
## Result criterion not met

## Task Could you tell me if the measured growth of CCCC(O)Cn1ncc(C(=O)OCC)c1NC(=O)NCc1cccc(C(F)(F)F)c1 (stereo not given) reaches 80% or more?
## Result criterion met

## Task Could you tell me if the measured growth of CN(C)CCCNC(=O)c1cncnc1Nc1ccc2c(ccn2Cc2cccc(F)c2)c1 reaches 80% or more?
## Result criterion not met

Source: PubChem BioAssay (NCI)
